ASSAY COMMENT: qHTS assay to identify small molecule antagonists of the thyroid receptor (TR) signaling pathway (AID 743065); also: nearly all actives have a fitted effect of over 55% in size
CONDITION LABEL: GH3.TRE-Luc, T3-stimulated luciferase inhibition, 23.5 h; series mostly up to 70.3 µM
Records with an inconclusive call do not appear. Activity calls are given as the source filed them. Calls follow the shape of the dose curve; as a rule, active = well fitted inhibition curve with a large enough effect in the repeat runs; inconclusive = weak or mixed curves; inactive = no such curve, though single readings can be large or run the other way.
Field 'call' accepts t (active), f (inactive)

> print(dat)
      compound  class.assignment
1  O=CN1CCOCC1                 f
2     CC(C)CCO                 f

Field: outcome | Entry: O=P(O)(O)OCC(O)CO (configuration not stated) f

Field: outcome | Entry: `O=C1OC(=O)c2ccccc21` f

Field: outcome | Entry: `CCCCCCCCCCCCC` f

Field: outcome | Entry: `C=C[C@@H](C)CCC=C(C)C` f

Field: outcome | Entry: NS(=O)(=O)c1cc2c(cc1Cl)NC(CC1CCCC1)NS2(=O)=O (configuration not stated) f

Field: outcome | Entry: `CCCCC(=O)N(C)C` f

Field: outcome | Entry: COCC(=O)Nc1c(I)c(C(=O)NCC(O)CO)c(I)c(C(=O)N(C)CC(O)CO)c1I (configuration not stated) f

Field: outcome | Entry: `CCN(Cc1cccc(S(=O)(=O)O)c1)c1ccccc1` f

Field: outcome | Entry: `O=C(O)c1ccccc1C(=O)Nc1ccc(S(=O)(=O)Nc2nccs2)cc1` f

Field: outcome | Entry: `C1CCN2C[C@@H]3C[C@@H](CN4CCCC[C@@H]34)[C@H]2C1` f

Field: outcome | Entry: `O=C(Oc1ccccc1C(=O)O)c1ccccc1O` f

Field: outcome | Entry: C1=CCC(c2ccccc2)CC1 (configuration not stated) f
